- System: G6pc siRNA knockdown AML-12 cells
- testSettings: low concentration of Table 6; Oil Red O; duplicate
quantityKind: Lipid Reduction Scoring, Low dose

molecule: Oc1ccc(C=Cc2cc(O)cc(O)c2)cc1
Lipid Reduction Scoring, Low dose: +

molecule: NC(=O)N1c2ccccc2C=Cc2ccccc21 [Carbamazepine]
Lipid Reduction Scoring, Low dose: +++

molecule: Cc1c(C)c2c(c(C)c1O)CC[C@@](C)(CCC[C@H](C)CCC[C@H](C)CCCC(C)C)O2
Lipid Reduction Scoring, Low dose: 0 (Spotty +)

molecule: CN(C)C(=N)N=C(N)N
Lipid Reduction Scoring, Low dose: +

molecule: CN(C)c1ccc2nc3ccc(=[N+](C)C)cc-3sc2c1
Lipid Reduction Scoring, Low dose: +

Challenge: Which Lipid Reduction Scoring, Low dose is reported for this molecule? O=C(O)CCCCC1CCSS1 (centres unmarked)
Response given: +

Challenge: Which Lipid Reduction Scoring, Low dose is reported for this molecule? CC#C[C@]1(O)CC[C@H]2[C@@H]3CCC4=CC(=O)CCC4=C3[C@@H](c3ccc(N(C)C)cc3)C[C@@]21C
Response given: +

Challenge: Which Lipid Reduction Scoring, Low dose is reported for this molecule? OC[C@H]1O[C@H](O[C@H]2O[C@H](CO)[C@@H](O)[C@H](O)[C@H]2O)[C@H](O)[C@@H](O)[C@@H]1O
Response given: +
